Property: pIC50; scope: individual binders
Molecular target: T1, human PTH-1 receptor (human, UniProt Q03431 27-593)
T1 construct: whole, on cells; also called human PTHR1; human PTH receptor
T1 sequence (looked up): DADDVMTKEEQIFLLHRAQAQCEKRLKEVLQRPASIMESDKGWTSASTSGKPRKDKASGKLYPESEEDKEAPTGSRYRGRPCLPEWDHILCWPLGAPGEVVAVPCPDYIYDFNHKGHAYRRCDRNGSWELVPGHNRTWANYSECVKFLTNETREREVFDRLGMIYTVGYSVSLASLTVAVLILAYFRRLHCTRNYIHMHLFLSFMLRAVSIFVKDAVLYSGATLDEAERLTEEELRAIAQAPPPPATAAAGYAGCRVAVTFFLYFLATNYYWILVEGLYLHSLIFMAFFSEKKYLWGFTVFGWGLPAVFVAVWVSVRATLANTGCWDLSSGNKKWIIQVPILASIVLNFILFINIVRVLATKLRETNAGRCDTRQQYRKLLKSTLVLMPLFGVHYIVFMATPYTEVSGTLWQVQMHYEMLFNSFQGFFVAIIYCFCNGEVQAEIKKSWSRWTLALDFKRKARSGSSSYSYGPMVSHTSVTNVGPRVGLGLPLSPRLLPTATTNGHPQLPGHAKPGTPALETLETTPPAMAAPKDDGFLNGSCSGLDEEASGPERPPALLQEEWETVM
Test: radioligand competition, human PTHR1 in COS-7 membranes, R0 conformation
Ends that are not written are not given here.
Quick note: pIC50 values are minus log10 of concentrations in mol/L.

>>> result("AVAEIQLMHQRAKWIQDLRRRFFLHHLIAEIHTAEI-OH (Synthetic hybrid analog of human PTH(1-14) and human PTHrP(15-36); also called Super-potent PTH; Mc-PTH(1-14)/rP(15-36)OH) [SP-PTH ([Ala1,3,12,Gln10,Arg11,Trp14]PTH(1-14)/PTHrP(15-36))]")
8.85

Reported pIC50 of AVAEIQLMHQRAKWIQDARRRAFLHKLIAEIHTAEI-OH (Synthetic hybrid analog of human PTH(1-14) and human PTHrP(15-36); also called Mc-PTH(1-14)/AAK-rP(15-36)OH; SP-AAK) [SP-PTH-AAK ([Ala1,3,12,18,22,Gln10,Arg11,Trp14,Lys26]PTH(1-14)/PTHrP(15-36))] : 9.17
